target: PDK-1 (Homo sapiens, UniProt O15530); assay: PDK-1 kinase inhibition ELISA assay (phosphorylation of His6-tagged SGK1 S422D by PDK-1); type: biochemical; conditions: PDK-1 ELISA, Table 11; read-out: Average IC50
Sequence (O15530 whole entry): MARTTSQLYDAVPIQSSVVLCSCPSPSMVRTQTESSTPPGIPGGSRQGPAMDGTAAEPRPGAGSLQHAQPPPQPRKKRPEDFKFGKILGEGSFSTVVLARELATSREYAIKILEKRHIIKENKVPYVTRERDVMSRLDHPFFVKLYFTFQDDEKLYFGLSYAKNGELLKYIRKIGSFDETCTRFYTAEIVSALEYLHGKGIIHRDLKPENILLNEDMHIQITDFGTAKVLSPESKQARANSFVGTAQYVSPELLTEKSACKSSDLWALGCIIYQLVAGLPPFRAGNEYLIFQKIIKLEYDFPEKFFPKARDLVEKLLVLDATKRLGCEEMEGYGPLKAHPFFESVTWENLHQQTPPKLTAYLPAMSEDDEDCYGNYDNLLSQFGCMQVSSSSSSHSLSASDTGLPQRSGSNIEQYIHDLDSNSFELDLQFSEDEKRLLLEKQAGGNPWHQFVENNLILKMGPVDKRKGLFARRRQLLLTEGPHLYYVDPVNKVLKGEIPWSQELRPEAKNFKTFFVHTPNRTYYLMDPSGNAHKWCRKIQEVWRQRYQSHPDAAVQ
MEASUREMENT_NAME: pIC50
Give bare numbers, as −log10 of the molar value.

Can you give me pIC50 for all of these, one by one?
1. COc1cc2ncc3c(N)nc(-c4cncc(Nc5ccc(CN)cc5)c4)cc3c2cc1OC
2. COc1cc2ncc3c(N)nc(-c4cncc(OC[C@@H](N)CNC(C)(C)c5ccncc5)c4)cc3c2cc1OC
3. COc1cc2ncc3c(N)nc(-c4cncc(Oc5ccc(N)nc5)c4)cc3c2cc1OC
4. COc1cc2ncc3c(N)nc(-c4cncc(Nc5cccnc5)c4)cc3c2cc1OC
5. COc1cc2ncc3c(N)nc(N4CC[C@H](N(C)C)C4)cc3c2cc1OC
6. COc1cc2ncc3c(N)nc(-c4cncc(OC[C@@H](N)CNc5ccccc5)c4)cc3c2cc1OC
7. COc1cc2ncc3c(N)nc(-c4cncc(C#CCN(C)Cc5ccccc5)c4)cc3c2cc1OC

1: 7.09; 2: 8.15; 3: 6.82; 4: 6.80; 5: 5.02; 6: 8.52; 7: 6.07

Query (molecule): COc1cc2ncc3c(N)nc(-c4cncc(Nc5ccc(C#N)cc5)c4)cc3c2cc1OC ; field requested: pIC50
6.22

###

Quick note: these are pIC50 numbers for system: S6K (Homo sapiens, UniProt P23443)
Sequence (P23443 whole entry): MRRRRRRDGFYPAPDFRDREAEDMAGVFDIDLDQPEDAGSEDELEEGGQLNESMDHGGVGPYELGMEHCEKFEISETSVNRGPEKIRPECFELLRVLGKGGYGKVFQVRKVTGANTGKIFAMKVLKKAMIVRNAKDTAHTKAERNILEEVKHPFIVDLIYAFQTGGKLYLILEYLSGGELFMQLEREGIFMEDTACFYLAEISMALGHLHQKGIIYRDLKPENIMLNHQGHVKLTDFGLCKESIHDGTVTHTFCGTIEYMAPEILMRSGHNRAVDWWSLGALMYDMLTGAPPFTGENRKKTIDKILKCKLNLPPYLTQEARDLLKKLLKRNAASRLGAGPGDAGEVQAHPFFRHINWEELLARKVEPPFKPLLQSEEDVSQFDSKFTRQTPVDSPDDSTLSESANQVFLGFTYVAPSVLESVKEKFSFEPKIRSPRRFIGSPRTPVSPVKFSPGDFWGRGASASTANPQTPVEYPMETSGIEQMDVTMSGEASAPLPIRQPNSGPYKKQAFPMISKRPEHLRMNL
One number for each entry, as −log10 of the molar value.

// known answers, use as guide
COc1cc2ncc3c(N)nc(-c4cncc(OC[C@@H](N)CN5CCOCC5)c4)cc3c2cc1OC : 6.14
COc1cc2ncc3c(N)nc(-c4cncc(O[C@@H]5CCCNC5)c4)cc3c2cc1OC : 6.86

Lab note: next molecule to report on.
Query (molecule): COc1cc2ncc3c(N)nc(-c4cncc(OC[C@@H](N)Cc5ccccc5Cl)c4)cc3c2cc1OC ; field requested: pIC50
6.97

###

target: PKA (Homo sapiens); assay: PKA kinase inhibition, Z'-LYTE FRET assay; assay type: biochemical; settings: 20 μM ATP
pIC50: −log10 of the molar value.
// label = met if pIC50 is not less than 6, otherwise not met

The following molecules have reported results that may help.
COc1cc2ncc3c(N)nc(-c4cncc(OC[C@@H](N)COCc5ccccc5)c4)cc3c2cc1OC [Ib-51] : met
COc1cc2c(cc1N1CCC(N3CCCC3)CC1)ncc1c(N)nc(-c3cccnc3C)cc12 [Ia-19] : not met
COc1cc2ncc3c(N)nc(-c4cncc(OC[C@H](N)Cc5ccccc5)c4)cc3c2cc1OC [Ib-56] : met
COc1cc2ncc3c(N)nc(-c4cncc(OC[C@@H](N)Cc5ccccc5Cl)c4)cc3c2cc1OC [Ib-52] : met
COc1cc2ncc3c(N)nc(-c4cncc(O[C@H]5CCNC5)c4)cc3c2cc1OC [Ib-59] : not met
COc1cc2ncc3c(N)nc(-c4cncc(OC[C@@H](N)CN5CCc6ccccc6C5)c4)cc3c2cc1OC [Ib-50] : not met

Evaluate COc1cc2ncc3c(N)nc(-n4ccnc4)cc3c2cc1OC [Ib-74] : pIC50 at minimum 6?
not met

Here is the next molecule: COc1cc2ncc3c(N)nc(-c4cncc(OC[C@@H]5CN(c6cccc(F)c6)C(=O)N5)c4)cc3c2cc1OC [Ib-35]
not met

Here is the next molecule: CCOc1cc2ncc3c(N)nc(-n4ccnc4)cc3c2cc1NC(C)=O [Ia-29]
not met

Here is the next molecule: COCCOc1cc2ncc3c(N)nc(-n4cnc(C)c4)cc3c2cc1OC [Ia-42]
not met

Here is the next molecule: COc1cc2c(cc1OCc1ccccc1)ncc1c(N)nc(-n3ccnc3)cc12 [Ia-34]
not met

Here is the next molecule: COc1cc2c(cc1OCCCN1CCN(C)CC1)ncc1c(N)nc(-n3ccnc3)cc12 [Ia-14]
not met

Here is the next molecule: COc1cc2ncc3c(N)nc(-n4cnc(CO)c4)cc3c2cc1OC [Ib-69]
not met
